Tested on: 454973-116-R2-J3-PDC spheroids, viability, % test/control;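 note: spheroids exposed to compounds for seven days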
Assay: Anticancer human tumor 454973-116-R2-J3-PDC patient-derived pancreatic carcinoma cell line growth inhibition [GQUAD]; active = viability on the fitted dose curve at most 10% of control; inactive = the rest
Details: second compound 10 µM; first compound 0.1 µM; spheroids with HUVEC and MSC
From the text: DNA G-quadruplex Stabilizer Agents in Combinations in Complex Spheroids A high-throughput screen of multi-cell type tumor spheroids was designed to identify active combinations of DNA G-quadruplex stabilizer agents and targeted small molecules. […] Compounds. […] If the clinical Cmax for an agent had not been determined, the highest concentration tested was 10 microM. […]
Please state which outcome applies, choosing from TRUE (active), FALSE (inactive)

Use these answered entries as a reference point.
C=CCn1c(=O)c2cnc(Nc3ccc(N4CCN(C)CC4)cc3)nc2n1-c1cccc(C(C)(C)O)n1 + Cc1cnc(CNC(=O)c2c(=O)c3ccc(N4CCCN(C)CC4)nc3n3c2sc2ccccc23)cn1    TRUE
Nc1ccn(C2OC(CO)C(O)C2(F)F)c(=O)n1 (stereo not given) + Cc1cnc(CNC(=O)c2c(=O)c3ccc(N4CCCN(C)CC4)nc3n3c2sc2ccccc23)cn1    TRUE
CC(C)n1c(=O)n(C)c2cnc3cc(F)c(-c4ccc(OCCCN5CCCCC5)nc4)cc3c21 + Cc1cnc(CNC(=O)c2c(=O)c3ccc(N4CCCN(C)CC4)nc3n3c2sc2ccccc23)cn1    TRUE
COc1ccc([C@@H](O)c2cc(-c3ncnc4cc(N5CCOCC5)ccc34)c(F)cc2Cl)nn1 + Cc1cnc(CNC(=O)c2c(=O)c3ccc(N4CCCN(C)CC4)nc3n3c2sc2ccccc23)cn1    TRUE

Now examine the next entry.
Called result for C=CCn1c(=O)c2cnc(Nc3ccc(N4CCN(C)CC4)cc3)nc2n1-c1cccc(C(C)(C)O)n1 + CN(C)c1ccc(Nc2c3ccc(NC(=O)CCN4CCCC4)cc3nc3cc(NC(=O)CCN4CCCC4)ccc23)cc1
FALSE

Cited source for all entries: PubChem BioAssay AID2060508
